# subject_of_test: Nuclear receptor ROR-gamma (Homo sapiens, UniProt P51449)
quantity_measured: EC50 (nM)

sample_smiles=CCCN(Cc1ccc(C)cc1)Cc1ccc(NC(=O)Cc2ccc(S(=O)(=O)CC)cc2)cc1 quantity_measured=EC50 quantitative_result=25

---

Recorded log10(IC50) by entry
# subject_of_test: UniProt P51450
# Sequence (P51450 whole entry): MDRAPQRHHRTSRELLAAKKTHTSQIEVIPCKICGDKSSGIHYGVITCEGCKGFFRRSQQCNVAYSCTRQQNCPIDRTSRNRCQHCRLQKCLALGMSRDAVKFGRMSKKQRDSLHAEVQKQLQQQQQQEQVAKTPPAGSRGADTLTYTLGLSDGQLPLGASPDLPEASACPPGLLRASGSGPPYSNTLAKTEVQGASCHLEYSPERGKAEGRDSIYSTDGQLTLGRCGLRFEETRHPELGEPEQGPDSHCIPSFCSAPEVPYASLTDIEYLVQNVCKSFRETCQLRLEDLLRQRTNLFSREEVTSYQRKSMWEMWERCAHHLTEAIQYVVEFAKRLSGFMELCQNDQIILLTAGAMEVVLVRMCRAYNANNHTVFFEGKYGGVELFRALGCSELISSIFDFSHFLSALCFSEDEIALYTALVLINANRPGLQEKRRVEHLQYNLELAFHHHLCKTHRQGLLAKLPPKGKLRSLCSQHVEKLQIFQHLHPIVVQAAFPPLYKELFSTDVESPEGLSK
# test: Inverse agonist activity at RORgammat in mouse Th17 cells assessed as effect on cell differentiation measured as IL-17 level after 3 days by ELISA
quantity_measured: log10(IC50) (log10 of the value in µM)

sample_smiles=CCS(=O)(=O)c1ccc(CC(=O)Nc2ccc3c(ccn3CCc3ccc(C#N)cc3)c2)cc1 quantity_measured=log10(IC50) quantitative_result=-0.34
sample_smiles=CCS(=O)(=O)c1ccc(CC(=O)Nc2ccc3c(ccn3CCc3ccc(Cl)c(Cl)c3)c2)cc1 quantity_measured=log10(IC50) quantitative_result=-1.40
sample_smiles=CCS(=O)(=O)c1ccc(CC(=O)Nc2ccc3c(ccn3CCc3ccc(Cl)cc3Cl)c2)cc1 quantity_measured=log10(IC50) quantitative_result=-2.05
sample_smiles=CCS(=O)(=O)c1ccc(CC(=O)Nc2ccc(NCCc3ccc(C(F)(F)F)cc3)c(Cl)c2)cc1 quantity_measured=log10(IC50) quantitative_result=0.01
sample_smiles=CCCN(CCc1ccc(C(F)(F)F)cc1)c1ccc(NC(=O)Cc2ccc(S(=O)(=O)CC)cc2)cc1 quantity_measured=log10(IC50) quantitative_result=-0.13
sample_smiles=CCS(=O)(=O)c1ccc(CC(=O)Nc2ccc3c(ccn3CCc3ccc(C(F)(F)F)cc3)c2)cc1 quantity_measured=log10(IC50) quantitative_result=-1.51
sample_smiles=CCS(=O)(=O)c1ccc(CC(=O)Nc2ccc3c(ccn3CCc3ccc(OC(C)C)cc3)c2)cc1 quantity_measured=log10(IC50) quantitative_result=-1.15
sample_smiles=CCS(=O)(=O)c1ccc(CC(=O)Nc2ccc3c(ccn3CCc3ccc(Cl)cc3)c2)cc1 quantity_measured=log10(IC50) quantitative_result=-0.79
sample_smiles=CCCN(Cc1ccc(NC(=O)Cc2ccc(S(=O)(=O)CC)cc2)cc1)Cc1ccc(C(F)(F)F)cc1 quantity_measured=log10(IC50) quantitative_result=-0.49

---

Sequence of the target: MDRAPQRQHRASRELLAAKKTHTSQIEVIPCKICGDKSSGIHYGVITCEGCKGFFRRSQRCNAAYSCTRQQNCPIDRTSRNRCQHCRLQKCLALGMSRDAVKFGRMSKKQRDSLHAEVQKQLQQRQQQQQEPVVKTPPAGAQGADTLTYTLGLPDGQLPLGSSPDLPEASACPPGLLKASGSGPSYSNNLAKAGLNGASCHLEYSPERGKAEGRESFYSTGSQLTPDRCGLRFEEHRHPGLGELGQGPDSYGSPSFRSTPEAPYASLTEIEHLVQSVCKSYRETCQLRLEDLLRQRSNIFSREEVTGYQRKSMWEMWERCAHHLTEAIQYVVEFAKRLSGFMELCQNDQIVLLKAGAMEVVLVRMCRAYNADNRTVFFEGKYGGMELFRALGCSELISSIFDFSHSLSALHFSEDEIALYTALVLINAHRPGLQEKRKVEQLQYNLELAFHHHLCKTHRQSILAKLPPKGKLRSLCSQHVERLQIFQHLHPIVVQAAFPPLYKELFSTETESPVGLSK
Recorded IC50 by entry
quantity_measured: IC50 (nM)

sample_smiles=CCS(=O)(=O)c1ccc(CC(=O)Nc2nc(-c3cc(Cl)ccc3Cl)cs2)cc1 readout_unit=nM bound_type== quantitative_result=1000
sample_smiles=CCCN(Cc1ccc(C)cc1)Cc1ccc(NC(=O)Cc2ccc(S(=O)(=O)CC)cc2)cc1 readout_unit=nM bound_type=> quantitative_result=25000
